- measured.on: GST-Hu-p50 (Homo sapiens, UniProt P19838 7-356)
- Sequence (P19838 7-356): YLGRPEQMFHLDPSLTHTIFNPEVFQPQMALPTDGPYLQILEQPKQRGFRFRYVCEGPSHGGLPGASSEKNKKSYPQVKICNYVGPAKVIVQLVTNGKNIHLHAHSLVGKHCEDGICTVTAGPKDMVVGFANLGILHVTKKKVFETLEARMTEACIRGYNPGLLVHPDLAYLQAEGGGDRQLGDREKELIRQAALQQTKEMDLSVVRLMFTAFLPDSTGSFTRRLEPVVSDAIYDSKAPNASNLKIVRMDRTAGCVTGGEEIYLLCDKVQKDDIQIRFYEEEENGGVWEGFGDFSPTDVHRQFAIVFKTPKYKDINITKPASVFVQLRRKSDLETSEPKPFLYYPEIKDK
- test.description: protein-binding microarray (PBM); PBM: ~300 nM protein, 6 mM HEPES pH 7.8, 80 mM KCl, 0.5 mM EDTA, 0.5 mM EGTA, 6% glycerol, 35 ng/ul poly-dIdC, 1% milk, 1 h, room temperature; high values mean tight binding
- particulars: dsDNA, one strand shown
Quick rule: binding signal of at least 4 z-score means yes (1), below that means no (0).

Solved cases below.
construct.sequence: CCGATTAACATCAAGGAATTTTCTGATGTTAATCGGGTCTTGATTCGCTTGACGCTGCTG
measured.on: GST-Hu-p50 (Homo sapiens, UniProt P19838 7-356)
discrete.label: no (0)
--
construct.sequence: CCGATTAACATCAAGAACCCCCTTGATGTTAATCGGGTCTTGATTCGCTTGACGCTGCTG
measured.on: GST-Hu-p50 (Homo sapiens, UniProt P19838 7-356)
discrete.label: yes (1)
--
construct.sequence: CCGATTAACATCACGGGGGAAAATGATGTTAATCGGGTCTTGATTCGCTTGACGCTGCTG
measured.on: GST-Hu-p50 (Homo sapiens, UniProt P19838 7-356)
discrete.label: yes (1)

Then there is this sequence:
Ask: Reported binding signal at or above 4 z-score? CCGATTAACATCAGGGGGAACGATGATGTTAATCGGGTCTTGATTCGCTTGACGCTGCTG
Result: yes (1)

###

- measured.on: GST-Aq-NF-kB (Amphimedon queenslandica, UniProt A9Y5G7 2-389)
- Sequence: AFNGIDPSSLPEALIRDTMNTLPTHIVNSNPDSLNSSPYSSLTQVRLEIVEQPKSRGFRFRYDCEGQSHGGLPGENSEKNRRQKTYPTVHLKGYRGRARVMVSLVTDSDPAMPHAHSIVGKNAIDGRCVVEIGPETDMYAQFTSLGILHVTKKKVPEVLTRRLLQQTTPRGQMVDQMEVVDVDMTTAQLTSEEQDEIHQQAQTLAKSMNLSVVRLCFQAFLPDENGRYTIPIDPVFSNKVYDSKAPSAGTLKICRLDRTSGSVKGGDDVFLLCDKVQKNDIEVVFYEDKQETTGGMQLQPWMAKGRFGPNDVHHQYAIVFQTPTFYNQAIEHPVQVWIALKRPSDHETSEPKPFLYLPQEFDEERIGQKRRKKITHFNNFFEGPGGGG
- test.description: protein-binding microarray (PBM); PBM: ~300 nM protein, 6 mM HEPES pH 7.8, 80 mM KCl, 0.5 mM EDTA, 0.5 mM EGTA, 6% glycerol, 35 ng/ul poly-dIdC, 1% milk, 1 h, room temperature; high values mean tight binding
- particulars: dsDNA, one strand shown
Let's look at some sequences and their measured binding signal.
# unit: z-score | format: bare number

Answered cases to consult:
construct.sequence: CCGATTAACATCAGGGACTTCACTGATGTTAATCGGGTCTTGATTCGCTTGACGCTGCTG
binding signal (z-score): 5.14
//
construct.sequence: CCGATTAACATCAGGGGTTTTACTGATGTTAATCGGGTCTTGATTCGCTTGACGCTGCTG
binding signal (z-score): 5.84
//
construct.sequence: CCGATTAACATCAGGAAAAACCATGATGTTAATCGGGTCTTGATTCGCTTGACGCTGCTG
binding signal (z-score): 2.94
//
construct.sequence: CCGATTAACATCAAGGGGGAAATTGATGTTAATCGGGTCTTGATTCGCTTGACGCTGCTG
binding signal (z-score): 7.06
//
construct.sequence: CCGATTAACATCAAAAATCCCAGTGATGTTAATCGGGTCTTGATTCGCTTGACGCTGCTG
binding signal (z-score): 3.8
//
construct.sequence: CCGATTAACATCAAGGGGGTTTCTGATGTTAATCGGGTCTTGATTCGCTTGACGCTGCTG
binding signal (z-score): 7.81
//
construct.sequence: CCGATTAACATCAGATTTTCCCCTGATGTTAATCGGGTCTTGATTCGCTTGACGCTGCTG
binding signal (z-score): 7.27
//
construct.sequence: CCGATTAACATCACGGTTTCCCCTGATGTTAATCGGGTCTTGATTCGCTTGACGCTGCTG
binding signal (z-score): 5.42

Consider now this further sequence.
Ask: # return recorded binding signal for input CCGATTAACATCAAGAACCCCCTTGATGTTAATCGGGTCTTGATTCGCTTGACGCTGCTG
Result: 6.48

###

Let's look at some sequences and their measured binding signal.
- measured.on: GST-Hu-p50 (Homo sapiens, UniProt P19838 7-356)
- test.description: protein-binding microarray (PBM); PBM: ~300 nM protein, 6 mM HEPES pH 7.8, 80 mM KCl, 0.5 mM EDTA, 0.5 mM EGTA, 6% glycerol, 35 ng/ul poly-dIdC, 1% milk, 1 h, room temperature; high values mean tight binding
- particulars: dsDNA, one strand shown
# unit: z-score | format: bare number

Answered cases to consult:
construct.sequence: CCGATTAACATCAGGGGGACAACTGATGTTAATCGGGTCTTGATTCGCTTGACGCTGCTG
binding signal [z-score]: 4.46
//
construct.sequence: CCGATTAACATCAGGAGTGCCCCTGATGTTAATCGGGTCTTGATTCGCTTGACGCTGCTG
binding signal [z-score]: 2.25

Ask: # return recorded binding signal for input CCGATTAACATCAAGGGAGTTCCTGATGTTAATCGGGTCTTGATTCGCTTGACGCTGCTG
Result: 3.7

###

- measured.on: GST-Co-NF-kB (Capsaspora owczarzaki, UniProt F1ARL5 200-546)
- Sequence: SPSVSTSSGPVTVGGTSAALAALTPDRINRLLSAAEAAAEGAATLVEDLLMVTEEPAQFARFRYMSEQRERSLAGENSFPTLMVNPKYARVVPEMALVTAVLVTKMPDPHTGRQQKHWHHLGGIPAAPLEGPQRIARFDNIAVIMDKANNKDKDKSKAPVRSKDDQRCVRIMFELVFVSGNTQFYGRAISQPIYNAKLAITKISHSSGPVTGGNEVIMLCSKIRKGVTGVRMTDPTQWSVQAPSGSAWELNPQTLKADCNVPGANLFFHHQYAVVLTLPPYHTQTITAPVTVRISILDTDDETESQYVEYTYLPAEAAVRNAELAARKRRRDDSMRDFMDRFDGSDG
- test.description: protein-binding microarray (PBM); PBM: ~300 nM protein, 6 mM HEPES pH 7.8, 80 mM KCl, 0.5 mM EDTA, 0.5 mM EGTA, 6% glycerol, 35 ng/ul poly-dIdC, 1% milk, 1 h, room temperature; high values mean tight binding
- particulars: dsDNA, one strand shown
Let's look at some sequences and their measured binding signal.
# unit: z-score | format: bare number

Answered cases to consult:
construct.sequence: CCGATTAACATCAACATTCCCCCTGATGTTAATCGGGTCTTGATTCGCTTGACGCTGCTG
binding signal (z-score): 9.34
--
construct.sequence: CCGATTAACATCAGGTATTCCCATGATGTTAATCGGGTCTTGATTCGCTTGACGCTGCTG
binding signal (z-score): 2.14

Consider now this further sequence.
Ask: # return recorded binding signal for input CCGATTAACATCATCAGTTTCCCTGATGTTAATCGGGTCTTGATTCGCTTGACGCTGCTG
Result: 2.69

###

- measured.on: GST-Dm-Relish (Drosophila melanogaster, UniProt Q94527 99-473)
- Sequence: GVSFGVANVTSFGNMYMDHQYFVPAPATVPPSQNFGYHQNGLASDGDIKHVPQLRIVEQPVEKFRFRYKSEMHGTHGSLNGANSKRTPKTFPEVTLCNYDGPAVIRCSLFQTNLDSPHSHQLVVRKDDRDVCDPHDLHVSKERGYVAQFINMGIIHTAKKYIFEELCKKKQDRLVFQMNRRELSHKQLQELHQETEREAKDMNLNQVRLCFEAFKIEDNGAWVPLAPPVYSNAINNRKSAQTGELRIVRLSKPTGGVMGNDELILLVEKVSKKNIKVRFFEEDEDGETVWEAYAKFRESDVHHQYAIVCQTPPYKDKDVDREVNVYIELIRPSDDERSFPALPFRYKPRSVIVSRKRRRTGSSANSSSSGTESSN
- test.description: protein-binding microarray (PBM); PBM: ~300 nM protein, 6 mM HEPES pH 7.8, 80 mM KCl, 0.5 mM EDTA, 0.5 mM EGTA, 6% glycerol, 35 ng/ul poly-dIdC, 1% milk, 1 h, room temperature; Ap Aiptasia and Nv Nematostella (sea anemones) / Co Capsaspora / Aq Amphimedon (sponge) / Dm Drosophila / Hu human; RHD is the Rel homology domain; high values mean tight binding
- particulars: dsDNA, one strand shown
Let's look at some sequences and their measured binding signal.
Express your answer as a number followed by its unit.

construct.sequence: CCGATTAACATCAGGGCTTTCCATGATGTTAATCGGGTCTTGATTCGCTTGACGCTGCTG
measured.property: binding signal
reported.value: 3.94 z-score
//
construct.sequence: CCGATTAACATCACAGGGAAAAATGATGTTAATCGGGTCTTGATTCGCTTGACGCTGCTG
measured.property: binding signal
reported.value: 1.6 z-score
//
construct.sequence: CCGATTAACATCAAAGTCCCCCCTGATGTTAATCGGGTCTTGATTCGCTTGACGCTGCTG
measured.property: binding signal
reported.value: 7.85 z-score
//
construct.sequence: CCGATTAACATCAGGGAGTTCACTGATGTTAATCGGGTCTTGATTCGCTTGACGCTGCTG
measured.property: binding signal
reported.value: 5.79 z-score
//
construct.sequence: CCGATTAACATCAGGGGACGTACTGATGTTAATCGGGTCTTGATTCGCTTGACGCTGCTG
measured.property: binding signal
reported.value: 6.95 z-score

Ask: # return recorded binding signal for input CCGATTAACATCAGGGACAACCCTGATGTTAATCGGGTCTTGATTCGCTTGACGCTGCTG
Result: 3.09 z-score

Cited source: paper PMC5700166
